tested on: CMS; design: species or system AML cell lines (8); Primary HTS, single concentration about 10 uM, Cell Titer Glo viability; log10 luminescence, per cent inhibition relative to cycloheximide control; settings: 72 h, relative to cycloheximide control, log10 luminescence; inhibitor
What CMS %inh was measured for each of the following?
Write the answer as a number in %, unit excluded.

Query CMS %inh on CMS for `COc1cccc(C2=C(c3cn(C)c4cc(F)ccc34)C(=O)NC2=O)c1`
6.064

Query CMS %inh on CMS for `Cn1c(=O)c(Oc2ccc(F)cc2F)cc2cnc(NC3CCS(=O)(=O)CC3)nc21`
-1.245

Query CMS %inh on CMS for `FC(F)(F)c1ccc(-c2nn3ncccc3c2-c2ccnc(Nc3ccc4c(c3)OCCO4)n2)cc1`
-3.296

Query CMS %inh on CMS for `C[C@@H](Cn1ncnn1)Nc1ncc2cc(Oc3ccc(F)cc3F)c(=O)n(C)c2n1`
0.2461

Query CMS %inh on CMS for `Oc1c(Cl)cc(Cl)c(Cl)c1Cc1c(O)c(Cl)cc(Cl)c1Cl`
32.47

Query CMS %inh on CMS for `Cn1cc(C2=C(c3cn(CCO)c4ccccc34)C(=O)NC2=O)c2ccccc21`
9.772
